Recorded values, source paper PMC10786891.

Target: T1, EsCas13d, nuclease-dead (Eubacterium siraeum, UniProt B0MS50, R295A;H300A;R849A;H854A)
T1 sequence: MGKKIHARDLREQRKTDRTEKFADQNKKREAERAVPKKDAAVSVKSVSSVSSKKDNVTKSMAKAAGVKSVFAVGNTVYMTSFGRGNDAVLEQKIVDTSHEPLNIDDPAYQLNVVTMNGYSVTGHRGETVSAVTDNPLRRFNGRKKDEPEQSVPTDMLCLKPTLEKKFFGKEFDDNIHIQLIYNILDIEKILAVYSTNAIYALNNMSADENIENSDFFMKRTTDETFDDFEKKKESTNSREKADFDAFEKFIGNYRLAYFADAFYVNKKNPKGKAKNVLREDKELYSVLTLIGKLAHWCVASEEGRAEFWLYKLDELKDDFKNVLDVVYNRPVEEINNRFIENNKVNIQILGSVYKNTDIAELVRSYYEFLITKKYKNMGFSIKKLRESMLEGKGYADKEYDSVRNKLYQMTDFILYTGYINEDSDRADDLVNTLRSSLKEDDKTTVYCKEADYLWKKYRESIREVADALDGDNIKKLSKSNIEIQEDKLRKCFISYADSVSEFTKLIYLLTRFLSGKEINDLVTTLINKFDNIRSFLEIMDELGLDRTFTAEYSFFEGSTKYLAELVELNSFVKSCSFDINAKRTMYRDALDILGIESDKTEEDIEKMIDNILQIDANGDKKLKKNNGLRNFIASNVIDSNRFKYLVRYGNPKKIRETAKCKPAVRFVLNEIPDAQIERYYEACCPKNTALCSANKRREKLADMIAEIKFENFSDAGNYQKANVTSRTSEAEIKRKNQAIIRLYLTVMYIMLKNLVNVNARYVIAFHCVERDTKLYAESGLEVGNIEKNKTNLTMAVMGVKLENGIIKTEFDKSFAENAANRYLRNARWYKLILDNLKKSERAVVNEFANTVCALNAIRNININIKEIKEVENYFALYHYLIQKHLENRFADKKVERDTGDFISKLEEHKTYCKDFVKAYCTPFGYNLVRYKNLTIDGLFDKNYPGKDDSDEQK
Assay: crRNA (strand 1, pre-loaded); Mg2+; 40 mM Tris-HCl pH 7.5, 150 mM NaCl, 6 mM MgCl2, 1 mM DTT, 0.1% Tween-20, 0.2 mg/ml BSA; 25 C; 10 min per concentration, then washed
Settings: tags: His6-TwinStrep-SUMO cleaved; N-terminal SNAP kept (SNAP-Surface 488); label: 3' end held by stalled T7 RNA polymerase
Items are presented alongside their recorded Kd.
Unit nM implied. Number only.

[[record]]
binder = "target 1 C4A,C7A (mixed) RNA 1: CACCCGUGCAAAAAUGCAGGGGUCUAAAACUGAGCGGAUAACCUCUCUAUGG RNA 2: GGGAAUGGAUCCACAUCUACGAAUUCGUACCAUAGAGAGGUUAUACGAUCACCGAGAUCGGAAGAGCACACGU"
numeric_result = 6.6

[[record]]
binder = "target 1 MT 5'PFS CCU 3'PFS AGA (mixed) RNA 1: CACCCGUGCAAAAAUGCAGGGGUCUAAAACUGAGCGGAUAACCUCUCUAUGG RNA 2: GGGAAUGGAUCCACAUCUACGAAUUCCCUCCAUAGAGAGGUUAUCCGCUCAAGAAGAUCGGAAGAGCACACGU"
numeric_result = 31.5

[[record]]
binder = "target 1 insG 3' of 18,insA 3' of 11 (mixed) RNA 1: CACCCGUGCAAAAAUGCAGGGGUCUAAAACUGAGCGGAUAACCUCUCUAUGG RNA 2: GGGAAUGGAUCCACAUCUACGAAUUCGUACCAUAGGAGAGGUAUAUCCGCUCACCGAGAUCGGAAGAGCACACGU"
numeric_result = 89

[[record]]
binder = "target 1 MT 5'PFS UAA 3'PFS CGG (mixed) RNA 1: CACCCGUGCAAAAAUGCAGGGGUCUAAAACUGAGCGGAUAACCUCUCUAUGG RNA 2: GGGAAUGGAUCCACAUCUACGAAUUCUAACCAUAGAGAGGUUAUCCGCUCACGGAGAUCGGAAGAGCACACGU"
numeric_result = 55.5


Inquiry: I am curious: what Kd value has been reported for target 1 MT 5'PFS UCA 3'PFS AAU (mixed) RNA 1: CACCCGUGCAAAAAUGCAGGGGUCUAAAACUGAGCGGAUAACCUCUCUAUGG RNA 2: GGGAAUGGAUCCACAUCUACGAAUUCUCACCAUAGAGAGGUUAUCCGCUCAAAUAGAUCGGAAGAGCACACGU ?
Reply text: 19.2

Inquiry: Same for target 2 MT 5'PFS AGC 3'PFS AGU (mixed) RNA 1: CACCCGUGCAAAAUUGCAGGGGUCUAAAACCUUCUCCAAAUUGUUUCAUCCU RNA 2: GGGAAUGGAUCCACAUCUACGAAUUCAGCAGGAUGAAACAAUUUGGAGAAGAGUAGAUCGGAAGAGCACACGU
Reply text: 10.2

Inquiry: Try this binder too: target 1 G5C,U19G (mixed) RNA 1: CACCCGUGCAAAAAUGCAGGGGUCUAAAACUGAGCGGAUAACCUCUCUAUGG RNA 2: GGGAAUGGAUCCACAUCUACGAAUUCGUACCAGAGAGAGGUUAUCCCCUCACCGAGAUCGGAAGAGCACACGU
Reply text: 30

Inquiry: Request: target 1 insG 3' of 8,insU 3' of 6 (mixed) RNA 1: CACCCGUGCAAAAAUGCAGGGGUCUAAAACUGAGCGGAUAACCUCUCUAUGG RNA 2: GGGAAUGGAUCCACAUCUACGAAUUCGUACCAUAGAGAGGUUAUGCCUGCUCACCGAGAUCGGAAGAGCACACGU
Reply text: 16.5
